target: GDP-bound KRAS wild-type protein (Homo sapiens); experiment: Binding to KRAS by surface plasmon resonance (SPR), Single Cycle Kinetics; conditions: SPR Single Cycle Kinetics, GDP-bound KRAS wild-type protein, 1:1 binding model; read-out: KRAS KD
Where a SMILES comes first, the peptide text is derived from it. Bridges are numbered along the chain shown (N, C = ends). [ ]: non-standard residue; d: D form. The star is where a group is joined. hPhe(3-Cl-4-CF3) = N[C@@H](CCc1ccc(C(F)(F)F)c(Cl)c1)C(=O)O; NPrPhe(4-CF3) = CCCN[C@@H](Cc1ccc(C(F)(F)F)cc1)C(=O)O; NMeGly(cPent) = CN[C@H](C(=O)O)C1CCCC1; Pro(4,4-F2) = O=C(O)[C@@H]1CC(F)(F)CN1; NMeD = CN[C@@H](CC(=O)O)C(=O)O; NMeL = CN[C@@H](CC(C)C)C(=O)O; Morpholide = C1CN(*)CCO1; NMeA = CN[C@@H](C)C(=O)O; Ac5c = NC1(C(=O)O)CCCC1; Aze = O=C(O)[C@@H]1CCN1; Sar = CNCC(=O)O
Kd: recorded values
All answers are understood in pM, so give the number only.

1) CCCN1C(=O)[C@@H]2CCN2C(=O)[C@H](C)N(C)C(=O)[C@H]([C@@H](C)CC)NC(=O)[C@H](CC(C)C)N(C)C(=O)C[C@@H](C(=O)N2CCOCC2)N(C)C(=O)[C@H](C2CCCC2)N(C)C(=O)C2(CCCC2)NC(=O)[C@@H]2CC(F)(F)CN2C(=O)[C@H](CCc2ccc(C(F)(F)F)c(Cl)c2)NC(=O)CN(C)C(=O)[C@@H]1Cc1ccc(C(F)(F)F)cc1 [PP0196] ([NMeL]I[NMeA][Aze][NPrPhe(4-CF3)][Sar][hPhe(3-Cl-4-CF3)][Pro(4,4-F2)][Ac5c][NMeGly(cPent)][NMeD]-Morpholide; lactam N-11) :: 150
2) CCC[C@H]1C(=O)N[C@@H]([C@@H](C)CC)C(=O)N(C)CC(=O)N(C)[C@H]2C/C=C\CCN(C2=O)[C@@H](Cc2ccc(C(F)(F)F)cc2)C(=O)N(C)CC(=O)N[C@@H](CCc2ccc(C(F)(F)F)c(OC)c2)C(=O)N2C[C@H](OCC)C[C@H]2C(=O)NC2(CC(C)(C)C2)C(=O)N(C)[C@@H](CC2CCC2)C(=O)N(C)[C@H](C(=O)N(C)C)CC(=O)N1C :: 850

Now, please, on to the next compound.
So the reported Kd for CCO[C@@H]1C[C@H]2C(=O)NC3(CC(C)(C)C3)C(=O)N(C)[C@@H](C3CCCC3)C(=O)N(C)[C@H](C(=O)N3CCCCC3)CC(=O)N(C)[C@@H](COC)C(=O)N[C@@H]([C@@H](C)CC)C(=O)N(C3CC3)CC(=O)N(C)[C@H]3C/C=C\CCN(C3=O)[C@@H](Cc3ccc(C(F)(F)F)cc3)C(=O)N(C)CC(=O)N[C@@H](CCc3cc(F)c(C(F)(F)F)c(F)c3)C(=O)N2C1 , on GDP-bound KRAS wild-type protein (Homo sapiens), turned out to be 720

###

pKd: recorded values
target: GDP-bound KRAS wild-type protein (Homo sapiens, UniProt P01116); test: Binding to KRAS by surface plasmon resonance (SPR), Single Cycle Kinetics; conditions: SPR, Single Cycle Kinetics, 1:1 binding model; GDP-bound KRAS wild-type protein; read-out: KRAS KD
Sequence (P01116 whole entry): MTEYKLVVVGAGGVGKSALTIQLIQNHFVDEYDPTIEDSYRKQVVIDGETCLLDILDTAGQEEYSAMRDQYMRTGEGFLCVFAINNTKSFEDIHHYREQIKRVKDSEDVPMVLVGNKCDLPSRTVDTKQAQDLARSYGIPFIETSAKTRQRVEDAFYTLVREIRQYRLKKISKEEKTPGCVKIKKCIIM
# pKd = -log10(concentration in molar units)

Some compounds with recorded pKd:
1) CCO[C@@H]1C[C@H]2C(=O)NC3(CCC3)C(=O)N(C)[C@@H](C3CCCC3)C(=O)N(C)[C@H](C(=O)N(C)CC)CC(=O)N(C)[C@@H](CC)C(=O)N[C@@H]([C@@H](C)CC)C(=O)N(C)CC(=O)N(C)[C@H]3C/C=C\CCN(C3=O)[C@@H](CC3CCCCC3)C(=O)N(C)CC(=O)N[C@@H](CCc3cc(F)c(C(F)(F)F)c(F)c3)C(=O)N2C1 :: 9.72
2) CCO[C@@H]1C[C@H]2C(=O)NC3(CCC3)C(=O)N(C)[C@@H](C3CCCC3)C(=O)N(C)[C@H](C(=O)N(C)C)CC(=O)N(C)[C@@H](CC3CCCC3)C(=O)N[C@@H]([C@@H](C)CC)C(=O)N(C)CC(=O)N(C)[C@H]3C/C=C\CCN(C3=O)[C@@H](Cc3ccc(C)cc3)C(=O)N(C)CC(=O)N[C@@H](CCc3cc(F)c(C(F)(F)F)c(F)c3)C(=O)N2C1 :: 10.10

The compound identified as CCO[C@@H]1C[C@H]2C(=O)NC3(CCC3)C(=O)N(C)[C@@H](C(CC)CC)C(=O)N(C)[C@H](C(=O)N3CCCC3)CC(=O)N(C)[C@@H](COC)C(=O)N[C@@H]([C@@H](C)CC)C(=O)N(C)CC(=O)N(C)[C@H]3C/C=C\CCN(C3=O)[C@@H](CC3CCCCC3)C(=O)N(C)CC(=O)N[C@@H](CCc3cc(F)c(C(F)(F)F)c(F)c3)C(=O)N2C1 registered its pKd at 9.26

###

target: GDP-bound KRAS wild-type protein (Homo sapiens, UniProt P01116); assay: Binding to KRAS by surface plasmon resonance (SPR), Single Cycle Kinetics; settings: SPR, Single Cycle Kinetics, GDP-bound KRAS wild-type protein; read-out: KRAS KD
pKd: −log10 of the molar value.
I would appreciate it if you labelled entries 1 when pKd is 9 or higher, otherwise 0.

1. CC[C@H](C)[C@@H]1NC(=O)[C@@H]2CCC/C=C/c3ccc(cc3)C[C@@H](C(=O)N(C)CC(=O)N[C@@H](CCc3ccc(Cl)c(Cl)c3)C(=O)N3C[C@H](OC4CCC4)C[C@H]3C(=O)NC3(CC(C)(C)C3)C(=O)N(C)[C@@H](C3CCCC3)C(=O)N(C)[C@H](C(=O)N3CCCC3)CC(=O)N2C)N2CC/C=C\C[C@@H](C2=O)N(C)C(=O)CN(C)C1=O :: 1
2. CCCOC[C@H]1C(=O)N[C@@H]([C@@H](C)CC)C(=O)N(C)CC(=O)N(C)[C@H]2C/C=C\CCN(C2=O)[C@@H](Cc2ccc(C)cc2)C(=O)N(C)CC(=O)N[C@@H](CCc2ccc(C(F)(F)F)c(Cl)c2)C(=O)N2C[C@@H](C)C[C@H]2C(=O)NC2(CC(C)(C)C2)C(=O)N(C)[C@@H](C2CCCC2)C(=O)N(C)[C@H](C(=O)N(C)CC)CC(=O)N1C :: 1
3. CCO[C@@H]1C[C@H]2C(=O)NC3(CCC3)C(=O)N(C)[C@@H](C3CCCC3)C(=O)N(C)[C@H](C(=O)N(C)C)CC(=O)N(C)[C@@H](COC)C(=O)N[C@@H]([C@@H](C)CC)C(=O)N3CC[C@H]3C(=O)N(C)[C@H]3CCCCCN(C3=O)[C@@H](Cc3ccc(C(F)(F)F)cc3)C(=O)N(C)CC(=O)N[C@@H](CCc3cc(F)c(C(F)(F)F)c(F)c3)C(=O)N2C1 :: 1
4. CCO[C@@H]1C[C@H]2C(=O)NC3(CCC3)C(=O)N(C)[C@@H](C3CCCC3)C(=O)N(C)[C@H](C(=O)N3CCOCC3)CC(=O)N(C)[C@@H](Cc3ccsc3)C(=O)N[C@@H]([C@@H](C)CC)C(=O)N(C)CC(=O)N(C)[C@H]3CCCCCN(C3=O)[C@@H](Cc3ccc(C(F)(F)F)cc3)C(=O)N(C)CC(=O)N[C@@H](CCc3cc(F)c(C(F)(F)F)c(F)c3)C(=O)N2C1 :: 1
5. CCO[C@@H]1C[C@H]2C(=O)NC3(CC(C)(C)C3)C(=O)N(C)[C@@H](C3CCCC3)C(=O)N(C)[C@H](C(=O)N(C)CC)CC(=O)N(C)[C@@H](C3CC3)C(=O)N[C@@H]([C@@H](C)CC)C(=O)N(C)CC(=O)N(C)[C@H]3C/C=C\CCN(C3=O)[C@@H](Cc3ccc(C(F)(F)F)cc3)C(=O)N(C)CC(=O)N[C@@H](CCc3cc(F)c(C(F)(F)F)c(F)c3)C(=O)N2C1 :: 1

Continue with the next compound.
Prompt line: I'd appreciate it if you could say whether CCC(CC)[C@H]1C(=O)N(C)[C@H](C(=O)N(C)C)CC(=O)N(C)[C@@H](COC)C(=O)N[C@@H]([C@@H](C)CC)C(=O)N(C2CC2)CC(=O)N(C)[C@H]2C/C=C\CCN(C2=O)[C@@H](CC2CCCCC2)C(=O)N(C)CC(=O)N[C@@H](CCc2ccc(Cl)c(Cl)c2)C(=O)N2C[C@H](OC(C)C)C[C@H]2C(=O)NC2(CC(C)(C)C2)C(=O)N1C has pKd at least equal to 9.
Response line: 0

###

biological target: GDP-bound KRAS wild-type protein (Homo sapiens, UniProt P01116); experiment: Binding to KRAS by surface plasmon resonance (SPR), Single Cycle Kinetics; conditions: SPR, Single Cycle Kinetics, 1:1 binding model; GDP-bound KRAS wild-type protein; read-out: KRAS KD
Assay metric: pKd
# pKd = -log10(concentration in molar units)

Some molecules with recorded pKd:
1. CCO[C@@H]1C[C@H]2C(=O)NC3(CCC3)C(=O)N(C)[C@@H](C(CC)CC)C(=O)N(C)[C@H](C(=O)N(C)C)CC(=O)N(C)[C@@H](CC3CC3)C(=O)N[C@@H]([C@@H](C)CC)C(=O)N(C)CC(=O)N(C)[C@H]3C/C=C\CCN(C3=O)[C@@H](CC3CCC(F)(F)CC3)C(=O)N(C)CC(=O)N[C@@H](CCc3cc(F)c(C(F)(F)F)c(F)c3)C(=O)N2C1 :: 9.28
2. CCO[C@@H]1C[C@H]2C(=O)NC3(CCC3)C(=O)N(C)[C@@H](C3CCCC3)C(=O)N(C)[C@H](C(=O)N3CCOCC3)CC(=O)N(C)[C@@H](CC3CCCC3)C(=O)N[C@@H]([C@@H](C)CC)C(=O)N(C)CC(=O)N(C)[C@H]3C/C=C\CCN(C3=O)[C@@H](Cc3ccc(C(F)(F)F)cc3)C(=O)N(C)CC(=O)N[C@@H](CCc3cc(F)c(C(F)(F)F)c(F)c3)C(=O)N2C1 :: 9.72

Now, please, on to the next molecule.
The molecule identified as CC[C@H](C)[C@@H]1NC(=O)[C@H](CC2CC2)N(C)C(=O)C[C@@H](C)N(C)C(=O)[C@H](C2CCCC2)N(C)C(=O)C2(CCC2)NC(=O)[C@H](CCC(F)F)N(C)C(=O)[C@H](CCc2cc(F)c(C(F)(F)F)c(F)c2)NC(=O)CN(C)C(=O)[C@H](Cc2ccc(C(F)(F)F)cc2)N2CC/C=C\C[C@@H](C2=O)N(C)C(=O)CN(C)C1=O registered its pKd at 8.32

Cited source: patent US20240158446A1
